# Assay System: T1, huZIP12-ECD-GST (human, UniProt Q504Y0 24-202)
# T1 construct: also called hZIP12-ECD-GST; human ZIP12-ECD-GST; not shown: glutathione S-transferase (GST) tag
# T1 sequence (Q504Y0 24-202): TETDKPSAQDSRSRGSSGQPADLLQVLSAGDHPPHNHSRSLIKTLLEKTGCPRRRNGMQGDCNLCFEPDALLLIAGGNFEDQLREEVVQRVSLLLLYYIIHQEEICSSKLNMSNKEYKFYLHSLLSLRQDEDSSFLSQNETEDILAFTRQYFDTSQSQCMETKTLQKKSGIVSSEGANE
# Experiment Description: SPR single cycle kinetics (Biacore): mAb captured on protein A, huZIP12-ECD-GST injected at 2.34-600 nM, extended dissociation
Each item that follows carries a reported kon.
Readout Type: kon (M⁻¹ s⁻¹)

1. H2_G66Q_VL-par (antibody, V domains shown, Fc null human IgG1 / human kappa) VH: QVQLVESGGGVVQPGRSLRLSCAASGFTFSDYGMHWVRQAPGKGLEWVAYISSGGTTIYYADTVKQRFTISRDNSKNTLYLQMNSLRAEDTAVYYCARWTNLYAMDYWGQGTTVTVSS VL: DIVLTQSPDSLAVSLGERATINCRASKSVSTSGYSYMHWYQQKPGQPPKFLIYLASNLESGVPDRFSGSGSGTDFTLTISSLQAEDVAVYYCQHSREVPYTFGGGTKVEIKR
33600
2. H3_W99H_L2 (antibody, V domains shown, Fc null human IgG1 / human kappa) VH: QVQLVESGGGVVQPGRSLRLSCAASGFTFSDYGMHWVRQAPGKGLEWVAYISSGGTTIYYADTVKGRFTISRDNSKNTLYLQMNSLRAEDTAVYYCARHTNLYAMDYWGQGTTVTVSS VL: DIVLTQSPDSLAVSLGERATINCRASKSVSTSGYSYMHWYQQKPGQPPKFLIYLASNKESGVPDRFSGSGSGTDFTLTISSLQAEDVAVYYCQHSREVPYTFGGGTKVEIKR
93100
3. H3_W99H_L1 (antibody, V domains shown, Fc null human IgG1 / human kappa) VH: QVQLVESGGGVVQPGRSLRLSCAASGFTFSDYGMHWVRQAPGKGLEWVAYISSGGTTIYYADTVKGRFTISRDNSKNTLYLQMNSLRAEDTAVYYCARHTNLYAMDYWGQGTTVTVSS VL: DIVLTQSPDSLAVSLGERATINCRASKSVSTQGYSYMHWYQQKPGQPPKFLIYLASNLESGVPDRFSGSGSGTDFTLTISSLQAEDVAVYYCQHSREVPYTFGGGTKVEIKR
99900
